Would you kindly list Ratio of Active Ingredient in Dendrimer Solution (ppm) to Active Ingredient in Water (ppm) for each of these compounds?
Assay: Solubility of active constituents in dendrimer solutions by HPLC (Example 26)
Assay type: physicochemical
Conditions: Bifenthrin; 100 g/L loading
Answer using only a numeral; do not append any unit.

Incoming: Value lookup for Ratio of Active Ingredient in Dendrimer Solution (ppm) to Active Ingredient in Water (ppm); key = CCC(COCC(O)CN(CC(=O)[O-])CC(=O)[O-])(COCC(O)CN(CC(=O)[O-])CC(=O)[O-])COCC(O)CN(CC(=O)[O-])CC(=O)[O-].[Na+].[Na+].[Na+].[Na+].[Na+].[Na+] (stereo not shown)
Outgoing: 1

Incoming: Value lookup for Ratio of Active Ingredient in Dendrimer Solution (ppm) to Active Ingredient in Water (ppm); key = CCC(COCC(O)CN(CCN)CCN)(COCC(O)CN(CCN)CCN)COCC(O)CN(CCN)CCN (stereo not shown)
Outgoing: 4

Incoming: Value lookup for Ratio of Active Ingredient in Dendrimer Solution (ppm) to Active Ingredient in Water (ppm); key = CCC(COCC(O)CN(CCO)CCO)(COCC(O)CN(CCO)CCO)COCC(O)CN(CCO)CCO (stereo not shown)
Outgoing: 1

Incoming: Value lookup for Ratio of Active Ingredient in Dendrimer Solution (ppm) to Active Ingredient in Water (ppm); key = CCC(COCC(O)CN(CCOC)CCOC)(COCC(O)CN(CCOC)CCOC)COCC(O)CN(CCOC)CCOC (stereo not shown)
Outgoing: 1

====

Would you kindly list Ratio of Active Ingredient in Dendrimer Solution (ppm) to Active Ingredient in Water (ppm) for each of these compounds?
Experiment: Solubility of active constituents in dendrimer solutions by HPLC (Example 26)
Assay type: physicochemical
Conditions: Pendimethalin; 10 g/L loading

Incoming: Value lookup for Ratio of Active Ingredient in Dendrimer Solution (ppm) to Active Ingredient in Water (ppm); key = CCC(COCC(O)CN(CCN)CCN)(COCC(O)CN(CCN)CCN)COCC(O)CN(CCN)CCN (stereo not shown)
Outgoing: 172

Incoming: Value lookup for Ratio of Active Ingredient in Dendrimer Solution (ppm) to Active Ingredient in Water (ppm); key = CCC(COCC(O)CN(CCOC)CCOC)(COCC(O)CN(CCOC)CCOC)COCC(O)CN(CCOC)CCOC (stereo not shown)
Outgoing: 44

Incoming: Value lookup for Ratio of Active Ingredient in Dendrimer Solution (ppm) to Active Ingredient in Water (ppm); key = CCC(COCC(O)CN(CCO)CCO)(COCC(O)CN(CCO)CCO)COCC(O)CN(CCO)CCO (stereo not shown)
Outgoing: 1

Incoming: Value lookup for Ratio of Active Ingredient in Dendrimer Solution (ppm) to Active Ingredient in Water (ppm); key = CCC(COCC(O)CN(CC(=O)[O-])CC(=O)[O-])(COCC(O)CN(CC(=O)[O-])CC(=O)[O-])COCC(O)CN(CC(=O)[O-])CC(=O)[O-].[Na+].[Na+].[Na+].[Na+].[Na+].[Na+] (stereo not shown)
Outgoing: 11

====

Test: Solubility of active constituents in dendrimer solutions by HPLC (Example 26)
Assay type: physicochemical
Details: 6-BAP; 100 g/L loading
MEASURE: Ratio of Active Ingredient in Dendrimer Solution (ppm) to Active Ingredient in Water (ppm)
Answer using only a numeral; do not append any unit.

Incoming: Value lookup for Ratio of Active Ingredient in Dendrimer Solution (ppm) to Active Ingredient in Water (ppm); key = CCC(COCC(O)CN(CCN)CCN)(COCC(O)CN(CCN)CCN)COCC(O)CN(CCN)CCN (stereo not shown) [Example 14]
Outgoing: 2740

Incoming: Value lookup for Ratio of Active Ingredient in Dendrimer Solution (ppm) to Active Ingredient in Water (ppm); key = CCC(COCC(O)CN(CCOC)CCOC)(COCC(O)CN(CCOC)CCOC)COCC(O)CN(CCOC)CCOC (stereo not shown) [Example 15]
Outgoing: 475

Incoming: Value lookup for Ratio of Active Ingredient in Dendrimer Solution (ppm) to Active Ingredient in Water (ppm); key = CCC(COCC(O)CN(CCO)CCO)(COCC(O)CN(CCO)CCO)COCC(O)CN(CCO)CCO (stereo not shown) [Example 2]
Outgoing: 967

Incoming: Value lookup for Ratio of Active Ingredient in Dendrimer Solution (ppm) to Active Ingredient in Water (ppm); key = CCC(COCC(O)CN(CC(=O)[O-])CC(=O)[O-])(COCC(O)CN(CC(=O)[O-])CC(=O)[O-])COCC(O)CN(CC(=O)[O-])CC(=O)[O-].[Na+].[Na+].[Na+].[Na+].[Na+].[Na+] (stereo not shown) [Example 10]
Outgoing: 448

====

Experiment: Solubility of active constituents in dendrimer solutions by HPLC (Example 26)
Type: physicochemical
Conditions: 6-BAP; 10 g/L loading
Would you kindly list Ratio of Active Ingredient in Dendrimer Solution (ppm) to Active Ingredient in Water (ppm) for each of these molecules?
Answer using only a numeral; do not append any unit.

Incoming: Value lookup for Ratio of Active Ingredient in Dendrimer Solution (ppm) to Active Ingredient in Water (ppm); key = CCC(COCC(O)CN(CCOC)CCOC)(COCC(O)CN(CCOC)CCOC)COCC(O)CN(CCOC)CCOC (stereo not shown)
Outgoing: 3

Incoming: Value lookup for Ratio of Active Ingredient in Dendrimer Solution (ppm) to Active Ingredient in Water (ppm); key = CCC(COCC(O)CN(CCN)CCN)(COCC(O)CN(CCN)CCN)COCC(O)CN(CCN)CCN (stereo not shown)
Outgoing: 10

Incoming: Value lookup for Ratio of Active Ingredient in Dendrimer Solution (ppm) to Active Ingredient in Water (ppm); key = CCC(COCC(O)CN(CC(=O)[O-])CC(=O)[O-])(COCC(O)CN(CC(=O)[O-])CC(=O)[O-])COCC(O)CN(CC(=O)[O-])CC(=O)[O-].[Na+].[Na+].[Na+].[Na+].[Na+].[Na+] (stereo not shown)
Outgoing: 7

Incoming: Value lookup for Ratio of Active Ingredient in Dendrimer Solution (ppm) to Active Ingredient in Water (ppm); key = CCC(COCC(O)CN(CCO)CCO)(COCC(O)CN(CCO)CCO)COCC(O)CN(CCO)CCO (stereo not shown)
Outgoing: 4

====

Would you kindly list Ratio of Active Ingredient in Dendrimer Solution (ppm) to Active Ingredient in Water (ppm) for each of these molecules?
Experiment: Solubility of active constituents in dendrimer solutions by HPLC (Example 26)
Format: physicochemical
Settings: Mcylobutanil; 10 g/L loading
Answer using only a numeral; do not append any unit.

Incoming: Value lookup for Ratio of Active Ingredient in Dendrimer Solution (ppm) to Active Ingredient in Water (ppm); key = CCC(COCC(O)CN(CCN)CCN)(COCC(O)CN(CCN)CCN)COCC(O)CN(CCN)CCN (stereo not shown)
Outgoing: 3

Incoming: Value lookup for Ratio of Active Ingredient in Dendrimer Solution (ppm) to Active Ingredient in Water (ppm); key = CCC(COCC(O)CN(CCO)CCO)(COCC(O)CN(CCO)CCO)COCC(O)CN(CCO)CCO (stereo not shown)
Outgoing: 2

Incoming: Value lookup for Ratio of Active Ingredient in Dendrimer Solution (ppm) to Active Ingredient in Water (ppm); key = CCC(COCC(O)CN(CC(=O)[O-])CC(=O)[O-])(COCC(O)CN(CC(=O)[O-])CC(=O)[O-])COCC(O)CN(CC(=O)[O-])CC(=O)[O-].[Na+].[Na+].[Na+].[Na+].[Na+].[Na+] (stereo not shown)
Outgoing: 2

Incoming: Value lookup for Ratio of Active Ingredient in Dendrimer Solution (ppm) to Active Ingredient in Water (ppm); key = CCC(COCC(O)CN(CCOC)CCOC)(COCC(O)CN(CCOC)CCOC)COCC(O)CN(CCOC)CCOC (stereo not shown)
Outgoing: 2

====

Would you kindly list Ratio of Active Ingredient in Dendrimer Solution (ppm) to Active Ingredient in Water (ppm) for each of these molecules?
Test: Solubility of active constituents in dendrimer solutions by HPLC (Example 26)
Format: physicochemical
Details: Penconazole; 100 g/L loading

Incoming: Value lookup for Ratio of Active Ingredient in Dendrimer Solution (ppm) to Active Ingredient in Water (ppm); key = CCC(COCC(O)CN(CCOC)CCOC)(COCC(O)CN(CCOC)CCOC)COCC(O)CN(CCOC)CCOC (stereo not shown) [Example 15]
Outgoing: 12

Incoming: Value lookup for Ratio of Active Ingredient in Dendrimer Solution (ppm) to Active Ingredient in Water (ppm); key = CCC(COCC(O)CN(CC(=O)[O-])CC(=O)[O-])(COCC(O)CN(CC(=O)[O-])CC(=O)[O-])COCC(O)CN(CC(=O)[O-])CC(=O)[O-].[Na+].[Na+].[Na+].[Na+].[Na+].[Na+] (stereo not shown) [Example 10]
Outgoing: 3

Incoming: Value lookup for Ratio of Active Ingredient in Dendrimer Solution (ppm) to Active Ingredient in Water (ppm); key = CCC(COCC(O)CN(CCO)CCO)(COCC(O)CN(CCO)CCO)COCC(O)CN(CCO)CCO (stereo not shown) [Example 2]
Outgoing: 43

Incoming: Value lookup for Ratio of Active Ingredient in Dendrimer Solution (ppm) to Active Ingredient in Water (ppm); key = CCC(COCC(O)CN(CCN)CCN)(COCC(O)CN(CCN)CCN)COCC(O)CN(CCN)CCN (stereo not shown) [Example 14]
Outgoing: 6
